tested on: Rhod. rubra 49; assay: Fungistatic activity, series dilution test; type: cell-based; settings: Sabouraud broth, 2 to 4 days at 26° C.
Overview of recorded MIC Rhod. for various compounds
Provide the reading as a plain figure in µg/mL.

Illustrative cases are given below, each with its answer.
# return recorded MIC Rhod. for input CN(C)Cc1ccc([C@H]2CC[C@H](N(C)C(=O)Oc3ccc(Cl)cc3)CC2)cc1.Cl
16

Supply recorded MIC Rhod. for CN(C)Cc1ccc([C@H]2CC[C@H](N(C)C(=S)SCc3cccc(F)c3)CC2)cc1.Cl here.
2

Name the recorded MIC Rhod. of the item CN(C)Cc1ccc([C@H]2CC[C@H](N(C)C(=S)Oc3ccc(Cl)cc3)CC2)cc1.Cl in your answer.
8

# return recorded MIC Rhod. for entry CN(C(=O)Oc1ccc(Cl)cc1)[C@H]1CC[C@H](c2ccc(CN3CCCCC3)cc2)CC1.Cl
64

Using the record for CN(C)Cc1ccc([C@H]2CC[C@H](N(C)C(=O)Oc3ccc(F)cc3)CC2)cc1.Cl , state its measured MIC Rhod..
16

Look up and state reported MIC Rhod. for C#CCN(C)Cc1ccc([C@H]2CC[C@H](N(C)C(=O)Oc3ccc(Cl)cc3)CC2)cc1
16

For the compound CCN(CC)Cc1ccc([C@H]2CC[C@H](N(C)C(=O)Oc3ccc(Cl)cc3)CC2)cc1.Cl , give its reported MIC Rhod..
8

Note MIC Rhod. for the compound shown: Cc1ccc(OC(=S)N(C)[C@H]2CC[C@H](c3ccc(CN4CCCCC4)cc3)CC2)cc1.Cl
8

***
Retrieve MIC Rhod. measured for CN(C(=O)Oc1ccc(Cl)cc1)[C@H]1CC[C@H](c2ccc(CN3CCCC3)cc2)CC1.Cl and print it.
32

---

target: 2,3-epoxysqualene-lanosterol-cyclase (Rattus norvegicus, UniProt P48450); construct: Measuring the in-vivo Activity in the Rat after Oral Administration; from tissue; host or cells: living rat; 2,3-epoxysqualene measured in the liver; assay: In-vivo activity in the rat after oral administration: 2,3-epoxysqualene level in the liver; conditions: 0.1 mg/kg oral, 3 h after administration
Measure Name: 2,3-epoxysqualene concentration in the liver (rat) (µg/g)
Record the value in µg/g, omitting the unit from your answer.

Past entries and their recorded results:
// fetch 2,3-epoxysqualene concentration in the liver (rat) for CN(C)Cc1ccc([C@H]2CC[C@H](N(C)C(=O)Oc3ccc(Cl)cc3)CC2)cc1.Cl [E] ; system: 2,3-epoxysqualene-lanosterol-cyclase (Rattus norvegicus, UniProt P48450)
92.5

Provide 2,3-epoxysqualene concentration in the liver (rat), tested on 2,3-epoxysqualene-lanosterol-cyclase (Rattus norvegicus, UniProt P48450), for CN(C)Cc1ccc([C@H]2CC[C@H](N(C)C(=O)Sc3ccc(Cl)cc3)CC2)cc1.Cl [H] .
117.7

For 2,3-epoxysqualene-lanosterol-cyclase (Rattus norvegicus, UniProt P48450), give 2,3-epoxysqualene concentration in the liver (rat) of the listed compound: Cc1ccc(OC(=O)N(C)[C@H]2CC[C@H](c3ccc(CN(C)C)cc3)CC2)cc1.Cl [O]
53.4

Give 2,3-epoxysqualene-lanosterol-cyclase (Rattus norvegicus, UniProt P48450) 2,3-epoxysqualene concentration in the liver (rat) for the following compound: CN(C)Cc1ccc([C@H]2CC[C@H](N(C)C(=S)Oc3ccc(Cl)cc3)CC2)cc1.Cl [G]
66.2

// fetch 2,3-epoxysqualene concentration in the liver (rat); item: CN(C)Cc1ccc([C@H]2CC[C@H](N(C)C(=S)Sc3ccc(Cl)cc3)CC2)cc1 [A] ; system: 2,3-epoxysqualene-lanosterol-cyclase (Rattus norvegicus, UniProt P48450)
62.6

GET 2,3-epoxysqualene concentration in the liver (rat) where system = 2,3-epoxysqualene-lanosterol-cyclase (Rattus norvegicus, UniProt P48450) and item = CN(C)Cc1ccc([C@H]2CC[C@H](N(C)C(=S)SCc3ccc(F)cc3)CC2)cc1.Cl [C]
47.0

Return reported 2,3-epoxysqualene concentration in the liver (rat) for target or system 2,3-epoxysqualene-lanosterol-cyclase (Rattus norvegicus, UniProt P48450), item CN(C)Cc1ccc([C@H]2CC[C@H](N(C)C(=O)Oc3ccc(F)cc3)CC2)cc1.Cl [R] .
53.8

Others:
State measured 2,3-epoxysqualene concentration in the liver (rat) of the compound CN(C)Cc1ccc([C@H]2CC[C@H](N(C)C(=S)SCc3cccc(F)c3)CC2)cc1.Cl [B] with 2,3-epoxysqualene-lanosterol-cyclase (Rattus norvegicus, UniProt P48450).
96.0

---

Molecular target: 2,3-epoxysqualene-lanosterol-cyclase (Rattus norvegicus)
Construct: Measuring the in-vivo Activity in the Rat after Oral Administration; from tissue; host or cells: living rat; 2,3-epoxysqualene measured in the liver
Sequence (P48450 1-733): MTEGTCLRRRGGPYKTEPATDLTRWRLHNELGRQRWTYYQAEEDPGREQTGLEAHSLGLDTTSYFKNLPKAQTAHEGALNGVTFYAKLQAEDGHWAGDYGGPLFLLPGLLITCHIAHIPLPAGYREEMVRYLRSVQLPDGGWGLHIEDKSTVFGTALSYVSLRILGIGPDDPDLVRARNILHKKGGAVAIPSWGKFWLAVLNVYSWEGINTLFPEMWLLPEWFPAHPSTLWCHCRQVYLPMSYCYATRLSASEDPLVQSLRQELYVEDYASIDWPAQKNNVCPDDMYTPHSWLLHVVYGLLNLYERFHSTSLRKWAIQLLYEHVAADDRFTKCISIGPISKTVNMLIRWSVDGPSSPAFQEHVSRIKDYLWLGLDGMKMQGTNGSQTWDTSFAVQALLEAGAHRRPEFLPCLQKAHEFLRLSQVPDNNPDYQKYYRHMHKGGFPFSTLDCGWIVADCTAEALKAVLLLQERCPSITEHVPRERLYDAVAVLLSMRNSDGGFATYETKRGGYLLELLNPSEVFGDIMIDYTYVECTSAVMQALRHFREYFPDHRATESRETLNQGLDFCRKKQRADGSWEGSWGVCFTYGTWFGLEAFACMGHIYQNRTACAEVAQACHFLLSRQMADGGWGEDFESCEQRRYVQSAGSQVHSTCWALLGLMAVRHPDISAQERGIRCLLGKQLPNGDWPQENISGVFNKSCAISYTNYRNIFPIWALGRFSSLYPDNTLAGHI
Experiment: In-vivo activity in the rat after oral administration: 2,3-epoxysqualene level in the liver
Conditions: 0.1 mg/kg oral, 8 h after administration
Measure Name: 2,3-epoxysqualene concentration in the liver (rat) (µg/g)
Lab book: enter the figure in µg/g, no units written.

For 2,3-epoxysqualene-lanosterol-cyclase (Rattus norvegicus), give the measured 2,3-epoxysqualene concentration in the liver (rat) of the entry Cc1ccc(OC(=O)N(C)[C@H]2CC[C@H](c3ccc(CN(C)C)cc3)CC2)cc1.Cl
94.3

Please report 2,3-epoxysqualene concentration in the liver (rat) with 2,3-epoxysqualene-lanosterol-cyclase (Rattus norvegicus) for item CN(C)Cc1ccc([C@H]2CC[C@H](N(C)C(=O)Oc3ccc(F)cc3)CC2)cc1.Cl .
152.9

// fetch 2,3-epoxysqualene concentration in the liver (rat); item: CN(C)Cc1ccc([C@H]2CC[C@H](N(C)C(=S)Sc3ccc(Cl)cc3)CC2)cc1 ; system: 2,3-epoxysqualene-lanosterol-cyclase (Rattus norvegicus)
312.5

Retrieve 2,3-epoxysqualene concentration in the liver (rat) on 2,3-epoxysqualene-lanosterol-cyclase (Rattus norvegicus); query CN(C)Cc1ccc([C@H]2CC[C@H](N(C)C(=S)Oc3ccc(Cl)cc3)CC2)cc1.Cl
115.3

Fill in: 2,3-epoxysqualene concentration in the liver (rat) on 2,3-epoxysqualene-lanosterol-cyclase (Rattus norvegicus), entry CN(C)Cc1ccc([C@H]2CC[C@H](N(C)C(=O)Sc3ccc(Cl)cc3)CC2)cc1.Cl
202.3

Give the observed 2,3-epoxysqualene concentration in the liver (rat) of CN(C)Cc1ccc([C@H]2CC[C@H](N(C)C(=O)Oc3ccc(Cl)cc3)CC2)cc1.Cl for 2,3-epoxysqualene-lanosterol-cyclase (Rattus norvegicus).
191.5

Report 2,3-epoxysqualene concentration in the liver (rat) on 2,3-epoxysqualene-lanosterol-cyclase (Rattus norvegicus) for this entry: CN(C)Cc1ccc([C@H]2CC[C@H](N(C)C(=S)SCc3ccc(F)cc3)CC2)cc1.Cl
133.1

Continue with the molecule presented below.
Tell me its 2,3-epoxysqualene concentration in the liver (rat) on 2,3-epoxysqualene-lanosterol-cyclase (Rattus norvegicus): CN(C)Cc1ccc([C@H]2CC[C@H](N(C)C(=S)SCc3cccc(F)c3)CC2)cc1.Cl
150.9

---

molecular target: 2,3-epoxysqualene-lanosterol-cyclase (Rattus norvegicus, UniProt P48450); construct: Measuring the in-vivo Activity in the Rat after Oral Administration; from tissue; host or cells: living rat; 2,3-epoxysqualene measured in the liver; experiment: In-vivo activity in the rat after oral administration: 2,3-epoxysqualene level in the liver; conditions: 1.0 mg/kg oral, 8 h after administration
Measure Name: 2,3-epoxysqualene concentration in the liver (rat) (µg/g)
# value in µg/g; strip the unit string

Here is how some compounds turned out for 2,3-epoxysqualene concentration in the liver (rat).
Output measured 2,3-epoxysqualene concentration in the liver (rat) for this item: Cc1ccc(OC(=O)N(C)[C@H]2CC[C@H](c3ccc(CN(C)C)cc3)CC2)cc1.Cl
224.8

Consider the compound CN(C)Cc1ccc([C@H]2CC[C@H](N(C)C(=S)SCc3ccc(F)cc3)CC2)cc1.Cl . State its measured 2,3-epoxysqualene concentration in the liver (rat).
243.9

Output measured 2,3-epoxysqualene concentration in the liver (rat) for this item: CN(C)Cc1ccc([C@H]2CC[C@H](N(C)C(=S)Sc3ccc(Cl)cc3)CC2)cc1
291.9

Next:
Return value of 2,3-epoxysqualene concentration in the liver (rat) for input CN(C)Cc1ccc([C@H]2CC[C@H](N(C)C(=O)Oc3ccc(F)cc3)CC2)cc1.Cl , no commentary.
340.0

Recorded values, source patent US20020019536A1.
